Parameter kon: see the listing below.
Measurement target: T1, soluble cynomolgus GPNMB (recombinant extracellular domain) (cynomolgus, UniProt Q14956 23-499 (human entry), limits assumed)
T1 chain: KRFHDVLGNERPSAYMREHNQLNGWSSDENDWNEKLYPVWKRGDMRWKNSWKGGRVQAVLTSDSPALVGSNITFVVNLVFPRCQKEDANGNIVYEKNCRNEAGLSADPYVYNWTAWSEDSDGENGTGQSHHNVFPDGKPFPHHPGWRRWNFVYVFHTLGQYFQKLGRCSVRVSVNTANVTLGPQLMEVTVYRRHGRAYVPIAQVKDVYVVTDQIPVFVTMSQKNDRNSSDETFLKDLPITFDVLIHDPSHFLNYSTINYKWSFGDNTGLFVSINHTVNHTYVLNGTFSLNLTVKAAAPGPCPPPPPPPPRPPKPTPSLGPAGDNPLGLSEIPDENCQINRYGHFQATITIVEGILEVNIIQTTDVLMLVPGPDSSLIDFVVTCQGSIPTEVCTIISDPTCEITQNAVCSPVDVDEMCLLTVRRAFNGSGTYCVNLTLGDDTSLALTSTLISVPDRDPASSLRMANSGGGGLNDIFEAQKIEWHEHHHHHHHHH
Experimental details: SPR Carterra, Ab immobilized
Record the value in M⁻¹ s⁻¹, omitting the unit from your answer.

// known answers, use as guide
{"Binder": "anti-GPNMB antibody GPN-03 (antibody, human IgG1, V domains shown, chimeric) VH: QVQLQQSGPELVKPGASVKLSCKASGYTFTNYYMYWVKQRPGQGLEWIGEINPRNGGTNFNEKFKSKATLTVDKSSSTAYMQLSSLTFEDSAVYYCTTGLAYWGQGTLVTVSA VL: DVVMTQTPLSLPVSLGDQASISCRSSQSLVHSDGNTYLHWYLQKPGQSPKLLIYKVSTRFSGVPDRFSGSGSGTDFTLKISRVEAEDLGVYFCSQSTHVPWTFGGGTKLEIK", "U": "M⁻¹ s⁻¹", "kon": 54000}
{"Binder": "anti-GPNMB antibody GPN-08 (antibody, human IgG1, V domains shown, chimeric) VH: QVQLQQPGAELVKPGASVKLSCRASGYTFTSYWLHWVKQRPGQGLEWIGEINPSDGRTNYIEKVKTKATLTVDKSSSTAYMQLSSLTSEDSAVYYCARSGGNYAWFAYWGQGTLVTVSA VL: DIVMTQSHKFMSTSVGDRVSITCKASQDVSPSVAWYQQRPGQSPKLLIYSASYRYTGVPDRFTGSGSGTDFTFTISSVQAEDLAVYYCQQHYSIPLTFGAGTKLELK", "U": "M⁻¹ s⁻¹", "kon": 48000}
{"Binder": "anti-GPNMB antibody GPN-34 (antibody, human IgG1, V domains shown, chimeric) VH: EVKLVESGGGLVQPGRSLKLSCAASGFNFYDYWMGWVRQAPGKGLEWIGEINKDSRTINYTPFLKDRFTISRDNAQNTLYLQMSKLGSEDTAIYYCAREGRVPFDYWGQGVMVTVSS VL: DIQMTQSPSSMSVSLGDTVTIPCRASQDVGSYVNWFQQKPGKSPRHMIYRATNLADGVPSRFSGSRSGADYSLTISSLESEDVADYHCQQYAEYPLTFGSGTKLEIK", "U": "M⁻¹ s⁻¹", "kon": 250000}
{"Binder": "anti-GPNMB antibody GPN-25 (antibody, human IgG1, V domains shown, chimeric) VH: EVQLQQSGPELVKPGASVKISCKASGYSFTGYYMNWVKQSPEKSLEWIGEINPGSGITTYNQKFKAKATLTVDKSSSTAYLQLKSLTSEDSAVYYCARPASWFAYWGQGTLVTVSA VL: DIQMTQSPSSLSASLGERVSFICRASQEISGHLSWLQQKPDGTIKRLIYAASTLDSGVPKRFSGSRSGSDYSLTISSLESEDFADYYCLQYASYPYTFGGGTKLEIK", "U": "M⁻¹ s⁻¹", "kon": 30000}
{"Binder": "anti-GPNMB antibody GPN-11 (antibody, human IgG1, V domains shown, chimeric) VH: QVQLQQPGAELVKPGASVKLSCKASGYTFTSYWMHWVKQRPGQGLEWIGEINSSNGRTNYNEKFKTKATLTVDRSSSTAYMQLSSLTSEDSAVYYCARLGYYSGSPYPYYAMDCWGQGTSVTVSS VL: DIQMTQSPASLSVSVGETVTITCRASENIYSNLAWYQQKQGKSPQLLVYAATNLADGVPSRFSGSGSGTQYSLKINSLQSEDFGSYYCQHFWNTPPTFGGGTKLEIK", "U": "M⁻¹ s⁻¹", "kon": 83000}
{"Binder": "anti-GPNMB antibody GPN-26 (antibody, human IgG1, V domains shown, chimeric) VH: EVQLQQSGPELVKPGASVKISCKASGYSFTGYYMNWVRQSPEKSLEWIGEINPSTGITTYNQKFKAKATLTVDKSSNTAFMQLKSLTSEDSAVYYCARPASWFDYWGQGTLVTVSA VL: DIQMTQSPSSLSASLGERVSLTCRASQEISGHLSWLQQKPDGTIKRLIYAASTLDSGVPKRFSGSRSGSDYSLTISSLESEDFADYYCLQYASYPYTFGGGTKLEIK", "U": "M⁻¹ s⁻¹", "kon": 31000}
{"Binder": "anti-GPNMB antibody GPN-30 (antibody, human IgG1, V domains shown, chimeric) VH: EVQLQQSGPELVNPGASVRISCKASGYSFTGYYMNWVKQSPEKSLEWIGEINPNTGFTTYNQNFKAKATLTVDKSSSTAYIQLKSLTSEDSAVYYCTRPSPSFDYWGQGTTLTVSS VL: DIQMTQSPSSLSASLGERGSLTCRASQEISGHLSWLQQKPDGTIKRLIYAASTLDSGVPKRFSGSRSGSDYSLTISSLESEDFADYYCLQYASYPYTFGGGTKLEIK", "U": "M⁻¹ s⁻¹", "kon": 26000}
{"Binder": "anti-GPNMB antibody GPN-06 (antibody, human IgG1, V domains shown, chimeric) VH: QVQLQQSGAELVKPGASVKLSCKASGYTFTNYYMYWVKQRPGQGLEWIGEINTRNGGTNFNEKFKSKATLTVDKSSSTAYMQLSSLTSEDSAVYYCTTGFAYWGQGTLVTVSA VL: DIQMTQSPASLSASVGETVTITCRASENIYSYLVWYQQNQGKSPQLLVYNAKTLAEGVPSRFSGSGSGTQFSLKINSLQPEDFGTYYCQHHYGTPFTFGSGTKLEIK", "U": "M⁻¹ s⁻¹", "kon": 21000}

Value of kon reported for the binder anti-GPNMB antibody GPN-07 (antibody, human IgG1, V domains shown, chimeric) VH: QVQLQQSGAEQVKPGASVKLSCKASGYTFTSYYMYWVKQRPGQGLEWIGEINPSNGGTYFNEKFKSKATLTVDKSSSTAYMHLSSLTSEDSAVYYCTRGGTYYAYWGQGTLVTVSA VL: DIQMTQSPSSLSASLGERVSLTCRASQEMSGHLSWLQQKPDGTIKRLIYAASTLDSGVPKRFSGSRSGSDYSLTISSLESEDFADYYCLQYASYPYTFGGGTKLEIK is 22000

Value of kon reported for the binder anti-GPNMB antibody GPN-31 (antibody, human IgG1, V domains shown, chimeric) VH: EVQLQQSGPELVKPGASVKISCKASGYSFTGYYMNWVKQSPEKNLEWIGEINPNTGGTTYNQKFKAKATLTVDKSSTTAYMQLKSLTSEDSAVYYCTRPASWFDYWGQGTLVTVSA VL: DIQMTQSPSSLSASLGERVSLTCRASQEISGHLSWLQQKPDGTIKRLIYAASTLDSGVPKRFSGRRSGSDYSLTISSLESEDFADYYCLQYASYPYTFGGGTKLAIK is 32000
